From: paper PMC10675340

experiment: In vivo biodistribution in normal Balb/c mice; design: species or system mouse; settings: female, mouse, urine with bladder contents, iv, total radioactivity; normal Balb/c mice, 2 h p.i., i.v. tail vein, mean ± SD, n = 4-6; read-out: Urine + Bladder (urinary excretion)
Where a SMILES comes first, the peptide text is derived from it. [ ]: non-standard residue; d: D form. The star is where a group is joined. DOTA = O=C(O)CN1CCN(CC(=O)O)CCN(CC(=O)*)CCN(CC(=O)O)CC1; βAla = NCCC(=O)O
outcome-measure: dose excreted at 2 h (%)

• CC[C@H](C)[C@H](NC(=O)[C@H](Cc1ccc(O)cc1)NC(=O)[C@@H](NC(=O)[C@H](CCCNC(=N)N)NC(=O)[C@H](CC(=O)O)NC(=O)CCNC(=O)[C@H](CCCCN)NC(=O)CN1CCN(CC(=O)O)CCN(CC(=O)O)CCN(CC(=O)O)CC1)C(C)C)C(=O)N[C@@H](Cc1c[nH]cn1)C(=O)N1CCC[C@H]1C(=O)N[C@@H](Cc1ccccc1)C(=O)N[C@@H](Cc1c[nH]c2ccccc12)C(=O)N[C@@H](CCCCN)C(=O)N[C@@H](Cc1ccc(O)cc1)C(N)=O [^68Ga-DOTA-AngII peptide, metal not drawn] ({DOTA}-K[βAla]DRVYIHPFWKY-NH2) = 80

###

assay: In vivo biodistribution in normal Balb/c mice; design: species or system mouse; details: female, mouse, spleen, iv, total radioactivity; normal Balb/c mice, 45 min p.i., i.v. tail vein, mean ± SD, n = 4-6; read-out: Spleen uptake
Where a SMILES comes first, the peptide text is derived from it. [ ]: non-standard residue; d: D form. The star is where a group is joined. DOTA = O=C(O)CN1CCN(CC(=O)O)CCN(CC(=O)*)CCN(CC(=O)O)CC1; βAla = NCCC(=O)O
outcome-measure: tissue uptake at 0.75 h

- CC[C@H](C)[C@H](NC(=O)[C@H](Cc1ccc(O)cc1)NC(=O)[C@@H](NC(=O)[C@H](CCCNC(=N)N)NC(=O)[C@H](CC(=O)O)NC(=O)CCNC(=O)[C@H](CCCCN)NC(=O)CN1CCN(CC(=O)O)CCN(CC(=O)O)CCN(CC(=O)O)CC1)C(C)C)C(=O)N[C@@H](Cc1c[nH]cn1)C(=O)N1CCC[C@H]1C(=O)N[C@@H](Cc1ccccc1)C(=O)N[C@@H](Cc1c[nH]c2ccccc12)C(=O)N[C@@H](CCCCN)C(=O)N[C@@H](Cc1ccc(O)cc1)C(N)=O [^68Ga-DOTA-AngII peptide, metal not drawn] ({DOTA}-K[βAla]DRVYIHPFWKY-NH2): 0.51 %ID/g

###

test: In vivo tumor targeting and biodistribution in nude mice bearing MDA-MB-231 xenografts; parameters: species or system mouse; details: mouse, liver, total radioactivity; nude mice with MDA-MB-231 xenografts, 45 min p.i., mean ± SD, n = 4-6; read-out: Liver uptake
Where a SMILES comes first, the peptide text is derived from it. [ ]: non-standard residue; d: D form. The star is where a group is joined. DOTA = O=C(O)CN1CCN(CC(=O)O)CCN(CC(=O)*)CCN(CC(=O)O)CC1; βAla = NCCC(=O)O
outcome-measure: tissue uptake at 0.75 h (%ID/g)

* CC[C@H](C)[C@H](NC(=O)[C@H](Cc1ccc(O)cc1)NC(=O)[C@@H](NC(=O)[C@H](CCCNC(=N)N)NC(=O)[C@H](CC(=O)O)NC(=O)CCNC(=O)[C@H](CCCCN)NC(=O)CN1CCN(CC(=O)O)CCN(CC(=O)O)CCN(CC(=O)O)CC1)C(C)C)C(=O)N[C@@H](Cc1c[nH]cn1)C(=O)N1CCC[C@H]1C(=O)N[C@@H](Cc1ccccc1)C(=O)N[C@@H](Cc1c[nH]c2ccccc12)C(=O)N[C@@H](CCCCN)C(=O)N[C@@H](Cc1ccc(O)cc1)C(N)=O [^68Ga-DOTA-AngII peptide, metal not drawn] ({DOTA}-K[βAla]DRVYIHPFWKY-NH2) | 0.77
